# ASSAYED SYSTEM: HLA-DR7 (human)
# TEST NAME: competition ELISA, tracer YKL
ASSAY METRIC: pIC50
Here pIC50 is given on a logarithmic scale as minus log10 of the concentration in mol/L.

The cases that follow already have their pIC50 on record.
[[record]]
binder = "DPHLPTLLLGTSGSGGDDDDPHGPVQLSYYD (modifications not checked) [D31D]"
assay_metric = "pIC50"
observed = 4.56

[[record]]
binder = "ALWNLHGQALFLGIVL (modifications not checked) [A16L]"
assay_metric = "pIC50"
observed = 6.91


Here is the next item to consider.
Which pIC50 reading was recorded for the binder ASSYAAAQRKLLTPV (modifications not checked) [A15V] ?
5.76
